B1: POU domain, class 4, transcription factor 3, residues 185 to 256; numbered along this chain, Q15319 (parent)
chain: RELEAFAERFKQRRIKLGVTQADVGAALANLKIPGVGSLSQSTICRFESLTLSHNNMIALKPVLQAWLEEAE

Variants of: B1
Experiment: abundance fitness (aPCA) (normalised: wild type 0, dead -1); higher = more abundant; growth selection in yeast, the domain comes from the species named
Conditions: Homo sapiens
RECORDED_ENDPOINT: abundance fitness
Reply: number alone, nothing else.

GET /values?readout=abundance fitness&item= A26Y
-0.144

GET /values?readout=abundance fitness&item= S38C
-0.27

GET /values?readout=abundance fitness&item= C45T
0.012

GET /values?readout=abundance fitness&item= K61I
-0.128

GET /values?readout=abundance fitness&item= L31T
-0.094

GET /values?readout=abundance fitness&item= P34I
-0.419

GET /values?readout=abundance fitness&item= C45N
-0.007

GET /values?readout=abundance fitness&item= T43S
-0.2

GET /values?readout=abundance fitness&item= K61N
-0.658

GET /values?readout=abundance fitness&item= K32P
-0.158

GET /values?readout=abundance fitness&item= G37K
-0.018

GET /values?readout=abundance fitness&item= S49P
-0.957

GET /values?readout=abundance fitness&item= K32N
0.004

GET /values?readout=abundance fitness&item= V24M
-0.301

GET /values?readout=abundance fitness&item= A26R
-0.017

GET /values?readout=abundance fitness&item= I33T
-0.197

GET /values?readout=abundance fitness&item= I33N
-0.341

GET /values?readout=abundance fitness&item= A26T
-0.108

GET /values?readout=abundance fitness&item= F47V
-0.718

GET /values?readout=abundance fitness&item= I33V
-0.515

GET /values?readout=abundance fitness&item= K32H
-0.113

GET /values?readout=abundance fitness&item= C45Q
0.003

GET /values?readout=abundance fitness&item= V24G
-0.858

GET /values?readout=abundance fitness&item= A26P
-0.472

GET /values?readout=abundance fitness&item= G25C
0.143

GET /values?readout=abundance fitness&item= G25L
-0.159

GET /values?readout=abundance fitness&item= T43L
-0.012

GET /values?readout=abundance fitness&item= S40F
-0.468

GET /values?readout=abundance fitness&item= C45S
-0.042

GET /values?readout=abundance fitness&item= L60R
-0.845

Data origin, for the record: the Human Domainome abundance scans (Beltran et al. 2025)
